Parameter melting point: see the listing below.
measured.metric: melting point

1) CC(C)c1nn(-c2ccc(C(F)(F)F)cn2)cc1CCCCOc1cc(CCC(=O)O)n(-c2ccccc2)n1; 137 to 138 °C
2) O=C(O)Cc1cccc(OCCCc2cc(-c3ccc(C(F)(F)F)cc3)no2)c1; 126 to 127 °C
3) CCOc1nn(-c2ccc(C(F)(F)F)cn2)cc1CCOc1cc(CCC(=O)O)n(-c2ccccc2)n1; 155 to 156 °C
4) Cc1cccc(CC(=O)O)c1OCCCc1cn(-c2ccc(C(F)(F)F)cn2)nc1C(C)(C)C; 86 to 87 °C

====

Below: a set of entries, each annotated with reported EC50.
tested.target: PPARδ-RXRα heterodimer (Homo sapiens)
Sequence (Q03181 1-441): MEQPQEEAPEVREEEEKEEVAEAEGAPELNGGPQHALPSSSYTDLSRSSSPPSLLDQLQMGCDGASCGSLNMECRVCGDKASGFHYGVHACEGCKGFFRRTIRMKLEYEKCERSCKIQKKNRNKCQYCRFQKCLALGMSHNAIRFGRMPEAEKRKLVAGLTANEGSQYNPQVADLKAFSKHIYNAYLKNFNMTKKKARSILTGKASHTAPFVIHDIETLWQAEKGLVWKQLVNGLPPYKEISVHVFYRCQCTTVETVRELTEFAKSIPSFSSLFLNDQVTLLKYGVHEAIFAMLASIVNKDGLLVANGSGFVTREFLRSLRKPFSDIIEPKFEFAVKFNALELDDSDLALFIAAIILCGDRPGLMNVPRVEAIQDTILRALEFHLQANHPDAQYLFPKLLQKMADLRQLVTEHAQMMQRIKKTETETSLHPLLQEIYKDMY
Sequence (P19793 1-462 partner): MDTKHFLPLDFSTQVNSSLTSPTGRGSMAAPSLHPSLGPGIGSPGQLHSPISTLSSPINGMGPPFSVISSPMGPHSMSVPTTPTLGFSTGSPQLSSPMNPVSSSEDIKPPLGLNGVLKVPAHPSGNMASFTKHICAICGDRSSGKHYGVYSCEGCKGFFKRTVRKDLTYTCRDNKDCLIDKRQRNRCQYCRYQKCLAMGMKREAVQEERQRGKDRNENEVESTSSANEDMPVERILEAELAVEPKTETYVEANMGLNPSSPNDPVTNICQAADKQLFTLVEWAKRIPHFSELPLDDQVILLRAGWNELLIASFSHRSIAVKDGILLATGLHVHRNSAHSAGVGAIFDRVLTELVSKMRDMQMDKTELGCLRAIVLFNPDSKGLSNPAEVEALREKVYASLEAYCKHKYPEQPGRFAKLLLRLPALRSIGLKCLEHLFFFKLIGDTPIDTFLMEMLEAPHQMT
procedure.text: PPARδ-RXRα heterodimer ligand activity, luciferase reporter in COS-1 transformant (Test Example 4)
condition.notes: COS-1 transformant (hPPARδ, hRXRα, reporter), 36-48 hours, concentration for 50% of the maximum fold induction
measured.metric: EC50 (nM)

1. CCC(CC)c1nn(-c2ccc(Cl)cn2)cc1CCCOc1c(CC(=O)O)cccc1OC; 97
2. CCOc1nn(-c2ccc(C(F)(F)F)cn2)cc1CCCOc1cccc(CC(=O)O)c1F; 1.9
3. CCCc1nn(-c2ccc(C(F)(F)F)cn2)cc1CCCCOc1cc(CC(=O)O)ccc1OC; 9.5
4. CCOc1nn(-c2ccc(C(F)(F)F)cc2)cc1CCCOc1ccccc1CC(=O)O; 5.6
